Reference for the values: patent US12398178

Biological target: T1, full-length β-Catenin (UniProt P35222 2-781, limits assumed)
T1 construct: mature; also called beta-catenin; beta-Catenin
T1 sequence (looked up): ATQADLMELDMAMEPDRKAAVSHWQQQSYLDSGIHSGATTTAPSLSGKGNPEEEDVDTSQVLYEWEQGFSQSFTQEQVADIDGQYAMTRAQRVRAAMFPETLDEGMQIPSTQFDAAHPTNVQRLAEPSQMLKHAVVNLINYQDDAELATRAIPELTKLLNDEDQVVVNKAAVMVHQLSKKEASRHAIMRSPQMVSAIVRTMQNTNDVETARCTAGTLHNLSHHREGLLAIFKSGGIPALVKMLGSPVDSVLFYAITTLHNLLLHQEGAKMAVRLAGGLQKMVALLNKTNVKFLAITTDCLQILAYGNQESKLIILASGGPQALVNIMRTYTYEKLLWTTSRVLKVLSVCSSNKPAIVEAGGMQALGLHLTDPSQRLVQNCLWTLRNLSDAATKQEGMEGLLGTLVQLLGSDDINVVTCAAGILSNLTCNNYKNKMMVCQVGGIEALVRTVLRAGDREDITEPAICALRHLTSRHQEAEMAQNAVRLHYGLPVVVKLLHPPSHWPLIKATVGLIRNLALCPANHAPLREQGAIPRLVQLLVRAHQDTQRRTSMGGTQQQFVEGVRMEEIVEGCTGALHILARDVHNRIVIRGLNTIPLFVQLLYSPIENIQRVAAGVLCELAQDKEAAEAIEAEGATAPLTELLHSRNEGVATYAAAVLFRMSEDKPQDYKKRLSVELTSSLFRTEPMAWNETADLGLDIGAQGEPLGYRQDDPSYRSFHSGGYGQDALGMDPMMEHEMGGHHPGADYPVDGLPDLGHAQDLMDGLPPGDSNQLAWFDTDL
Experiment: competition fluorescence polarization vs FITC-Axin peptide probe on full-length beta-catenin
Positions of bridges follow the written chain, without caps; N, C: chain ends. No end group written: not given here. Linker 12 = not defined here; Linker 13 = not defined here; Linker 7 = not defined here
The entries below come with measured pEC50 values attached.
Recall that pEC50 is obtained by taking minus log10 of the concentration measured in molar.

[[record]]
binder = "ADPALWACEHAALICETQ (linker 8-15 via Linker 12 (inferred); reading uncertain, synthetic cysteine-stapled peptide) [Peptide ID 42, ADPALWACEHAALICETQ, staple type Linker 12]"
property_measured = "pEC50"
value = 5.35

[[record]]
binder = "ADPATHRCEWAALHCELV (linker 8-15 via Linker 7 (inferred); reading uncertain, synthetic cysteine-stapled peptide) [Peptide ID 1, ADPATHRCEWAALHCELV, staple type Linker 7]"
property_measured = "pEC50"
value = 5.28

[[record]]
binder = "ADPATHRCEWAALHCELV (linker 8-15 via Linker 13 (inferred); reading uncertain, synthetic cysteine-stapled peptide) [Peptide ID 34, ADPATHRCEWAALHCELV, staple type Linker 13]"
property_measured = "pEC50"
value = 5.36

[[record]]
binder = "ADPATHRCEWAALHCELV (linker 8-15 via Linker 12 (inferred); reading uncertain, synthetic cysteine-stapled peptide) [Peptide ID 33, ADPATHRCEWAALHCELV, staple type Linker 12]"
property_measured = "pEC50"
value = 5.27


Now for another entry.
Req: Item ADPAQWHCEHAALICELD (linker 8-15 via Linker 7 (inferred); reading uncertain, synthetic cysteine-stapled peptide) [Peptide ID 10, ADPAQWHCEHAALICELD, staple type Linker 7] has what recorded pEC50?
Resp: 6.38
